The measured values listed here are drawn from patent US10308639B2.

- System tested: PI3Kδ (Homo sapiens, UniProt O00329)
- Construct: made in house
- Sequence (O00329 whole entry): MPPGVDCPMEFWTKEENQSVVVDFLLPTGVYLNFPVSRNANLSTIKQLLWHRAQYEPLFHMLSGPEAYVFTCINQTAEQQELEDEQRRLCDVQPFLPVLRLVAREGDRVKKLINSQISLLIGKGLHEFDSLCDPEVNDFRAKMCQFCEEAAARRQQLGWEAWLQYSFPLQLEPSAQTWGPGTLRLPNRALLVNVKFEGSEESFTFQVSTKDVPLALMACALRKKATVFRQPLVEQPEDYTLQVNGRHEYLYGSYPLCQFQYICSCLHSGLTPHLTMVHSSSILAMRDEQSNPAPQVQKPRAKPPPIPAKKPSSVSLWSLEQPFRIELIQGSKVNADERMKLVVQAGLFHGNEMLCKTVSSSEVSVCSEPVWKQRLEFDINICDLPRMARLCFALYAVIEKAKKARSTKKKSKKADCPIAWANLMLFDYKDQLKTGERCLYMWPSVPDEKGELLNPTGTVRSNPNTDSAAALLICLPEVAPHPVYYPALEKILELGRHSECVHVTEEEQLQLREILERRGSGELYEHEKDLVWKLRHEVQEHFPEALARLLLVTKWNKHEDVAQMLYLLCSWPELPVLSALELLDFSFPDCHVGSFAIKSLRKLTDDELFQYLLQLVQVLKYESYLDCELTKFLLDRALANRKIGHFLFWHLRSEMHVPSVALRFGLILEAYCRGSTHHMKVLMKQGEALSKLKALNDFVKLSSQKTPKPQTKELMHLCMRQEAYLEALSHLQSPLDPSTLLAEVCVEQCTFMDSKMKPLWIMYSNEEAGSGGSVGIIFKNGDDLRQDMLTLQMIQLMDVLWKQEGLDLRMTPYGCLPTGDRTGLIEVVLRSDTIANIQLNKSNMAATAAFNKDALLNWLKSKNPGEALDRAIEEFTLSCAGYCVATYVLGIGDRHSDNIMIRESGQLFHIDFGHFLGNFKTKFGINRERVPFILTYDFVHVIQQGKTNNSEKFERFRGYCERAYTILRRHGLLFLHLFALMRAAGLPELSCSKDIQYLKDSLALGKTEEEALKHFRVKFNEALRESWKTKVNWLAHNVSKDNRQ
- Sequence (P27986 whole entry partner): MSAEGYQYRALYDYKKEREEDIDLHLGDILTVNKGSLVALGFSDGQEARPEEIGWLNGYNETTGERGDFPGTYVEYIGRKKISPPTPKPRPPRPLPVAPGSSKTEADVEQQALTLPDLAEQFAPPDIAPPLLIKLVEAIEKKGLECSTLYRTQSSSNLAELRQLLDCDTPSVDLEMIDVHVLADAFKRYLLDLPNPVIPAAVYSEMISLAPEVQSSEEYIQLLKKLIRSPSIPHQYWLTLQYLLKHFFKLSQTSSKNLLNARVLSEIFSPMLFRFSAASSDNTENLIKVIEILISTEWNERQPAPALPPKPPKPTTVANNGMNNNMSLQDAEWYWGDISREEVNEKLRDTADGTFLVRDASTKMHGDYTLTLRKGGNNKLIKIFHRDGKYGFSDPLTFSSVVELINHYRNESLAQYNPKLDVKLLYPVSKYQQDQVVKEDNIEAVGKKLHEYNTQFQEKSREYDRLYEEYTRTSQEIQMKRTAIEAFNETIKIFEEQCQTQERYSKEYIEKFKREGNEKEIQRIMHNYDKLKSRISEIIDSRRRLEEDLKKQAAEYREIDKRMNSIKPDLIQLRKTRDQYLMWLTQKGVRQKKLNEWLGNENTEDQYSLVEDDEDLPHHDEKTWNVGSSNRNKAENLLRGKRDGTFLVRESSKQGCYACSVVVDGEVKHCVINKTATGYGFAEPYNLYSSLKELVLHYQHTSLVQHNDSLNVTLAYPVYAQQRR
- Measurement protocol: TR-FRET enzymatic activity assay, PI3Kδ
- Type: biochemical
- Test parameters: Table 2; TR-FRET, 2x Km ATP, 30 minutes at 25° C.
Recorded IC50 for the following compounds
Could you give me the number in nM? Just the number is fine.

Check out these entries, answers already filled in.
C[C@H](Nc1nc(N)nc2[nH]ncc12)c1nc2cccc(Cl)c2c(=O)n1-c1cc[nH]n1; 830
CC[C@H](Nc1nc(N)nc(N)c1C#N)c1nc2cccc(Br)c2c(=O)n1-c1cn[nH]c1; 1
CC[C@H](Nc1nc(N)nc(N)c1Cl)c1nc2c(F)ccc(Cl)c2c(=O)n1-c1cc[nH]n1; 20
CC[C@H](Nc1ncnc2[nH]cc(F)c12)c1nc2c(Cl)ccc(Cl)c2c(=O)n1-c1cn[nH]c1; 14

IC50 recorded for this compound, N#Cc1c(N)nc(N)nc1N[C@H](c1nc2ccc(F)cc2c(=O)n1-c1cc[nH]n1)C1CC1 , is 1

Summary for this compound, CC[C@H](Nc1ncnc2scnc12)c1nc2c(Cl)ccc(Cl)c2c(=O)n1-c1n[nH]cc1Br : IC50 is 19

Notebook: Cc1nc(N)nc(N[C@H](c2nc3cccc(Cl)c3c(=O)n2-c2cn[nH]c2)C2CC2)c1C#N , IC50 read as 0.7

---

- System tested: PI3Kγ (Homo sapiens)
- Construct: made in house
- Sequence (P48736 whole entry): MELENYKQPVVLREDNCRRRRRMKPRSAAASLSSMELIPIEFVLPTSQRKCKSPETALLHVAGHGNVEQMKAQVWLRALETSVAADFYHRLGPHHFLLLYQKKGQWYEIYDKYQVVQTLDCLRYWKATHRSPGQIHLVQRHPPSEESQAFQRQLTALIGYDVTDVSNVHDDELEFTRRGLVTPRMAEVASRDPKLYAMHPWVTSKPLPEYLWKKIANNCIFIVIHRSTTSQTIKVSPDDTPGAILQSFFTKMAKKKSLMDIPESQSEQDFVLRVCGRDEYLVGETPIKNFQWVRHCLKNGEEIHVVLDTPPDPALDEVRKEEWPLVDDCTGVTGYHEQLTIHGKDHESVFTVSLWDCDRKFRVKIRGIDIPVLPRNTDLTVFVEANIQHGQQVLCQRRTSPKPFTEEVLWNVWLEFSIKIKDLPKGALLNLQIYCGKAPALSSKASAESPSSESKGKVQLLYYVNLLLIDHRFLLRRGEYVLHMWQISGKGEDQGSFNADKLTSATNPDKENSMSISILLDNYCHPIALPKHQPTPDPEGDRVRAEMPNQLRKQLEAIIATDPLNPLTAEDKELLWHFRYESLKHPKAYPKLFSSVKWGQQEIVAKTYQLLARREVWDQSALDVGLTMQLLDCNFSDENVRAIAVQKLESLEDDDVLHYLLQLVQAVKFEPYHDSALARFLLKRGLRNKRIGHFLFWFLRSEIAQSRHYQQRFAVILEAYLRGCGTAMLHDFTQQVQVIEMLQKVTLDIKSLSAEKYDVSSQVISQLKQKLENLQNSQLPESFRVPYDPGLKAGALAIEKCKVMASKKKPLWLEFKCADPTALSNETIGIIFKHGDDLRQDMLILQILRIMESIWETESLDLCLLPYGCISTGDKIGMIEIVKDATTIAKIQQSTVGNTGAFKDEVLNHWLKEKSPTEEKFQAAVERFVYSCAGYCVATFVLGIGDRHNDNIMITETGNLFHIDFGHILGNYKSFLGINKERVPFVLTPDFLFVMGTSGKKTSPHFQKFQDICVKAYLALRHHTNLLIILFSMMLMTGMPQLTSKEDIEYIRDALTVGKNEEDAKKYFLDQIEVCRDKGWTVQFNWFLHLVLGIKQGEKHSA
- Measurement protocol: TR-FRET enzymatic activity assay, PI3Kγ
- Type: biochemical
- Test parameters: Table 2a; same assay; read-out: PI3Kγ IC50
Endpoint: IC50

C[C@H](Nc1nc(N)nc(N)c1Cl)c1nc2ccccc2c(=O)n1-c1cc[nH]n1 [Compound 275]; > 10 µM

So for Nc1nc(N)c(Cl)c(N[C@H](c2nc3cccc(Cl)c3c(=O)n2-c2c[nH]cn2)C2CC2)n1 [Compound 287] , the logged IC50 turned out to be 3 µM

Form field IC50, entry N#Cc1c(N)nc(N)nc1N[C@H](c1nc2c(Cl)cc(F)cc2c(=O)n1-c1cc[nH]n1)C1CCC1 [Compound 130] : 7.8 µM

Per the records, this compound ( C[C@H](Nc1nc(N)nc(C(F)F)c1C#N)c1nc2cccc(C(F)F)c2c(=O)n1-c1cn[nH]c1 [Compound 179] ) has IC50 equal to 0.95 µM

Record C[C@H](Nc1nc(N)nc(N)c1C#N)c1nc2c(Cl)ccc(Cl)c2c(=O)n1-c1cn[nH]c1 [Compound 217] . Reported IC50: 0.083 µM

Reported IC50 of C[C@H](Nc1nc(N)nc(N)c1Cl)c1nc2cc(F)cc(Cl)c2c(=O)n1-c1cc[nH]n1 [Compound 238] : > 10 µM

Memo: C[C@H](Nc1nc(N)nc(N)c1Cl)c1nc2c(C#N)cc(F)cc2c(=O)n1-c1cc[nH]n1 [Compound 271] , reported IC50: > 10 µM

---

- System tested: PI3Kδ (Homo sapiens, UniProt O00329)
- Construct: made in house
- Measurement protocol: TR-FRET enzymatic activity assay, PI3Kδ
- Format: biochemical
- Test parameters: Table 2a; same assay
pIC50: −log10 of the molar value.
// label = 1 if pIC50 is not less than 8, otherwise -1

IN: Tell me whether pIC50 is at least 8 here: C[C@H](Nc1nc(N)nc(N)c1C#N)c1nc2c(C(F)(F)F)cccc2c(=O)n1-c1cc[nH]n1
OUT: 1

IN: Given the entry C[C@H](Nc1nc(N)nc(C(F)F)c1Cl)c1nc2c(Cl)cc(F)cc2c(=O)n1-c1cc[nH]n1 , answer whether its pIC50 meets or surpasses 8.
OUT: -1

IN: Check the entry C[C@H](Nc1nc(N)nc(N)c1C#N)c1nc2c(Cl)ccc(C(F)F)c2c(=O)n1-c1cc[nH]n1 : does pIC50 equal or exceed 8?
OUT: 1

IN: Quick check: does Nc1nc(N)c(Cl)c(N[C@H](c2nc3cccc(Cl)c3c(=O)n2-c2cc[nH]n2)C2CCC2)n1 have pIC50 greater than or equal to 8?
OUT: -1

IN: Does the compound Cc1ccc(Cl)c2nc([C@H](C)Nc3nc(N)nc(C(F)F)c3C#N)n(-c3cc[nH]n3)c(=O)c12 have recorded pIC50 that is 8 or more?
OUT: 1

IN: Tell me whether pIC50 is at least 8 here: Cc1c[nH]nc1-n1c([C@@H](Nc2nc(N)nc(N)c2Cl)C2CC2)nc2cccc(Cl)c2c1=O
OUT: -1
